Kindly state Activation %, aequorin bioluminescence for each of the entries shown.
Molecular target: human MCH-1R (human, UniProt Q99705 1-353)
Sequence (Q99705 whole entry): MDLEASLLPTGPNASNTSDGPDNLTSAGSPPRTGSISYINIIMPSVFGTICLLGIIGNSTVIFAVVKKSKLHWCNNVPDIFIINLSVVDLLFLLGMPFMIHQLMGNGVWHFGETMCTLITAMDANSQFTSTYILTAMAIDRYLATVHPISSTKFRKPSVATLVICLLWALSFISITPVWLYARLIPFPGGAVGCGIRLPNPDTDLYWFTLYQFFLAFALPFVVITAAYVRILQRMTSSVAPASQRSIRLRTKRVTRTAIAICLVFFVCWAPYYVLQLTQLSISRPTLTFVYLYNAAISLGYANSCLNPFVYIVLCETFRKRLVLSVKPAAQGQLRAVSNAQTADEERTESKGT
Experiment: cell-based or functional assay
State the result as a value with its unit after it.

Enquiry: Could you share which Activation %, aequorin bioluminescence value was measured for XCXLNRVYRPC (HELM PEPTIDE1{[ac].[dR].C.[Nle].L.N.R.V.Y.R.P.C.[am]}$PEPTIDE1,PEPTIDE1,3:R3-12:R3$$$V2.0; SMILES CCCC[C@@H]1NC(=O)[C@@H](NC(=O)[C@@H](CCCNC(=N)N)NC(C)=O)CSSC[C@@H](C(N)=O)NC(=O)[C@@H]2CCCN2C(=O)[C@H](CCCNC(=N)N)NC(=O)[C@H](Cc2ccc(O)cc2)NC(=O)[C@H](C(C)C)NC(=O)[C@H](CCCNC(=N)N)NC(=O)[C@H](CC(N)=O)NC(=O)[C@H](CC(C)C)NC1=O) [SEQ. ID. NO. 31 (D-Arg^6, Nle^8, Asn^10 analog of Ac-hMCH(6-16)-NH2)] ?
Return: 130%

Enquiry: Could you share which Activation %, aequorin bioluminescence value was measured for XCMLQRVYRPC (HELM PEPTIDE1{[ac].[dR].C.M.L.Q.R.V.Y.R.P.C.[am]}$PEPTIDE1,PEPTIDE1,3:R3-12:R3$$$V2.0; SMILES CSCC[C@@H]1NC(=O)[C@@H](NC(=O)[C@@H](CCCNC(=N)N)NC(C)=O)CSSC[C@@H](C(N)=O)NC(=O)[C@@H]2CCCN2C(=O)[C@H](CCCNC(=N)N)NC(=O)[C@H](Cc2ccc(O)cc2)NC(=O)[C@H](C(C)C)NC(=O)[C@H](CCCNC(=N)N)NC(=O)[C@H](CCC(N)=O)NC(=O)[C@H](CC(C)C)NC1=O) [SEQ. ID. NO. 30 (D-Arg^6, Gln^10 analog of Ac-hMCH(6-16)-NH2)] ?
Return: 74%
